Field: normalized growth. Provide a value for each of the compounds that follow.
- assayProtocol: chemical genetic growth profiling, strain panel (AID 1159580);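 note: tested at 20 µM; growth read once vehicle control cultures reached saturation at 30 °C; 1 = growth at the plate median or of vehicle wells; lower values mean less growth of the strain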
- conditionNotes: S. cerevisiae deletion strains, growth OD, locus YOL006C, strain TOP1, hits give low values
About 2,000 (36%) of roughly 5,500 compounds were called active. Inconclusive results (about 18%) are left out. Some of the results follow.
Numbers only.

Input: Can you share its normalized growth? I mean this compound: `O=C1NCC2(CCN(CCc3ccccc3)CC2)O1`
Output: 1.07

Parameters: items (list). Returns: normalized growth for each item.
1. COc1ccc(C(=O)O)cc1OC
2. COc1ccc(OC)c(C(O)CNC(=O)CN)c1 (stereo not given)
3. CCC1(O)CC(OC2CC(N(C)C)C(OC3CC(O)C(OC4CCC(=O)C(C)O4)C(C)O3)C(C)O2)c2c(cc3c(c2O)C(=O)c2c(O)cccc2C3=O)C1C(=O)OC (stereo not given)
4. CC[C@@H](C(=O)C(C)[C@@H](O)[C@H](C)CCc1ccc(C)c(O)c1C(=O)O)C1OC(CC)(C2CC[C@](O)(CC)[C@H](C)O2)C[C@@H]1C (stereo not given in full)
5. C=CCc1ccc(OC(=O)c2ccccc2)c(OC)c1
6. CC[C@H]1OC(=O)[C@H](C)[C@@H](O[C@H]2C[C@@](C)(OC)[C@@H](O)[C@H](C)O2)[C@H](C)[C@@H](O[C@@H]2O[C@H](C)C[C@H](N(C)C)[C@H]2O)[C@](C)(OC)C[C@@H](C)C(=O)[C@H](C)[C@@H](O)[C@]1(C)O

Output:
1. 1.36
2. 0.933
3. 0.812
4. 0.716
5. 0.779
6. 0.757

Parameters: items (list). Returns: normalized growth for each item.
1. CC[C@@]1(O)C[C@H](O[C@H]2C[C@H](N(C)C)[C@H](O)[C@H](C)O2)c2c(cc3c(c2O)C(=O)c2c(O)cccc2C3=O)[C@H]1C(=O)OC
2. Clc1ccc(C(OCCN2CCCCC2)c2ccccc2)cc1 (stereo not given)
3. CN1CCC(OC(c2ccccc2)c2ccccc2)CC1

Output:
[0.198, 0.592, 0.946]

---

Field: normalized growth. Provide a value for each of the compounds that follow.
- assayProtocol: chemical genetic growth profiling, strain panel (AID 1159580);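 note: tested at 20 µM; growth read once vehicle control cultures reached saturation at 30 °C; 1 = growth at the plate median or of vehicle wells; lower values mean less growth of the strain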
- conditionNotes: S. cerevisiae deletion strains, growth OD, locus YJR066W, strain TOR1, hits give low values
About 2,000 (36%) of roughly 5,500 compounds were called active. Another 18% or so got no clear call; they are omitted. The list shows a part of the results.
One number for each entry.

Worked examples, 6 compounds total:
Input: Can you share its normalized growth? I mean this compound: CCC(C)C(=O)O[C@@H]1C[C@@]2(C)[C@H](c3ccoc3)OC(=O)CC23OC2(C)O[C@]14[C@]1(C)[C@@H](CC(=O)OC)C5(C)CC1(O)[C@](O)(C5OC(=O)C1(C)OC1C)[C@@H](OC(C)=O)[C@]34O2 (stereo partly specified)
Output: 0.912

Input: Param item: `CN1CC(=O)N=C1N`
Output: 0.902

Input: Param item: `O=C(O[C@@H]1Cc2c(O)cc(O)cc2O[C@@H]1c1cc(O)c(O)c(O)c1)c1cc(O)c(O)c(O)c1`
Output: 0.936

Input: Param item: CCC(C)C(=O)O[C@@H]1C[C@@]2(C)[C@H](c3ccoc3)OC(=O)CC23OC2(C)OC34[C@H](OC(=O)C(C)C)[C@@]3(O)[C@@H](OC(=O)C5(C)OC5C)[C@@]5(C)C[C@]3(O)[C@@](C)([C@H]5CC(=O)OC)C14O2 (stereo partly specified)
Output: 0.979

Input: Param item: `CC[C@@]1(O)C[C@H](O[C@H]2C[C@H](N(C)C)[C@H](O)[C@H](C)O2)c2c(cc3c(c2O)C(=O)c2c(O)ccc(O)c2C3=O)[C@H]1C(=O)OC`
Output: 0.957

Input: Param item: `O=C(NCc1ccc(Cl)c(Cl)c1)c1cccnc1OCC(F)(F)F`
Output: 1.07

Parameters: items (list). Returns: normalized growth for each item.
1. CC(C)(C)c1ccc(C(=N)SC(C(=O)C(F)(F)F)c2ccccc2)cc1 (stereo unspecified)
2. C[C@]12CCC(=O)C=C1C=CC1C2CC[C@@]2(C)C1CC[C@@]21CCC(=O)O1 (stereo partly specified)
3. CC1(C)S[C@@H]2[C@H](NC(=O)[C@H](N)c3ccccc3)C(=O)N2[C@H]1C(=O)O
4. C/C=C(\C)C(=O)O[C@H]1C[C@@H](OC(C)=O)[C@@]2(C(=O)OC)CO[C@@H]3C2[C@]12CO[C@](O)(C(=O)OC)[C@H]2[C@](C)(C12O[C@@]1(C)[C@H]1C[C@@H]2OC2OC=C[C@@]21O)[C@@H]3O (stereo partly specified)
5. COC(=O)C[C@H]1C2(C)CC34OC5(C)O[C@@]6([C@H](OC)C(OC(=O)C(C)C)[C@]7(C)C(/C(=C(/OC)C(C)C)C(=O)O[C@H]7c7ccoc7)[C@@]6(O5)[C@H](OC)[C@@]3(OC)C2OC(C)=O)[C@]14C (stereo partly specified)

Output:
1. 0.859
2. 0.951
3. 0.981
4. 0.933
5. 0.884
